Exercise: for every item that follows, state its recorded pIC50.
molecular target: T1, human IL13 R130Q (human, UniProt P35225 35-146, biotinylated (sites not given)); assay: IL13Ra2 binding inhibition; repeats Table 17
T1 construct: Peprotech; also called IL13R13Q; R111Q
T1 sequence (P35225 35-146 limits assumed, stated change not applied): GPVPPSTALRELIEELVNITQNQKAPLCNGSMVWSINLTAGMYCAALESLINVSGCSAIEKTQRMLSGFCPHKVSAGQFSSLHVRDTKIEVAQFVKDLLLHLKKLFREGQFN
Give only the number. pIC50 is defined as minus log10 of concentration in molar units.

[in] What value of pIC50 has been recorded for this entry: C06_53G6_V1_C01_6G9_V1 (designed binder, bispecific IL4/IL13 ankyrin repeat protein with (GGGGS)4 linker; also called bispecific AR protein) DLGKKLLEAARAGQDDEVRILMANGADVNATDDWGDTLLHLAATDGHLEIVEVLLKAGADVNANDAIGDTPLHLAALYGHLEIVEVLLKYGADVNATDLHGFTPLHLAAFWGHLEIVEVLLKHGADVNAQDKFGKTAFDISIDNGNEDLAEILQKLNGGGGSGGGGSGGGGSGGGGSDLDKKLLEAARAGQDDEVRILMANGADVNARDSYGSTPLHLAAREGHLEIVEVLLKYGADVNAADFIGDTPLHLAAYRGHLEIVEVLLKYGADVNASDITGETPLHLAAQIGHLEIVEVLLKHGADVNAQDKFGKTAFDISIDNGNEDLAEILQKLN
[out] 9.70

[in] What value of pIC50 has been recorded for this entry: C01_6G9_V1_C06_53G6_V1 (designed binder, bispecific IL13/IL4 ankyrin repeat protein with (GGGGS)4 linker; also called bispecific AR protein) DLDKKLLEAARAGQDDEVRILMANGADVNARDSYGSTPLHLAAREGHLEIVEVLLKYGADVNAADFIGDTPLHLAAYRGHLEIVEVLLKYGADVNASDITGETPLHLAAQIGHLEIVEVLLKHGADVNAQDKFGKTAFDISIDNGNEDLAEILQKLNGGGGSGGGGSGGGGSGGGGSDLGKKLLEAARAGQDDEVRILMANGADVNATDDWGDTLLHLAATDGHLEIVEVLLKAGADVNANDAIGDTPLHLAALYGHLEIVEVLLKYGADVNATDLHGFTPLHLAAFWGHLEIVEVLLKHGADVNAQDKFGKTAFDISIDNGNEDLAEILQKLN
[out] 10.00
